Where do the numbers come from? From ChEMBL document CHEMBL1148170.

tested on: Aorta; assay: Inhibition of norepinephrine-induced Wistar rat thoracic aorta phasic contraction at 100 ug/mL after 15 mins; assay type: functional
reported_metric: Contraction as % of control

- compound: "O=c1c(O[C@@H]2O[C@H](CO)[C@H](O)[C@H](O)[C@H]2O)c(-c2ccc(O)c(O)c2)oc2cc(O)cc(O)c12 [HYPEROSIDE]"
  reported_measurement: "100%"
- compound: "C[C@@H]1O[C@@H](OC[C@H]2O[C@@H](Oc3c(-c4ccc(O)c(O)c4)oc4cc(O)cc(O)c4c3=O)[C@H](O)[C@@H](O)[C@@H]2O)[C@H](O)[C@H](O)[C@H]1O"
  reported_measurement: "103.8%"
- compound: "O=c1c(O[C@@H]2O[C@H](CO[C@@H]3OC[C@H](O)[C@H](O)[C@H]3O)[C@H](O)[C@H](O)[C@H]2O)c(-c2ccc(O)c(O)c2)oc2cc(O)cc(O)c12"
  reported_measurement: "100%"
- compound: "O=c1c(O)c(-c2ccc(O)c(O)c2)oc2cc(O)cc(O)c12"
  reported_measurement: "27%"
